# Tested On: T1, RSV F B K68N-N201S (RSV B)
# T1 construct: whole, on cells
# Run Description: FACS, % binding to RSV F B variants

Binder: MPK201-v1.2 (antibody, V domains shown) VH: EVQLVQSGAEVKKPGESLKISCQGSGYSFINYWIGWVRQKPGKGLEWMGIIYPFDSETKYSPSFQGHVTFSADKSINTAYVQWSSLRASDTAMYYCARFTFGLAVTTADVSGEGQAFEIWGQGTMVTVSS VL: QIVMMQSPATLSVSPGERATLSCRASQSVAGNLAWYQQRPGQAPRLLVYGASTRASGVPARFSGSGSETEFTLTISSLQSEDFAVYYCHHYSDLPQAFGQGTRLDIK
% binding, %: 47.3

Provenance of the data: patent US20260028391A1
